Test system: Chikungunya virus (CHIKV)
test-name: microbe, parasite or virus in culture
Type: cell-based
particulars: Chikungunya virus, Vero, 48 h, read-out: Percent viral inhibition CHKV
Field: inhibition at 1 µM. Provide a value for each of the molecules that follow.
Answers are plain numbers, in %.

Would you mind listing inhibition at 1 µM for each of the following molecules?
1. CC(=O)NCC1CCN(Cc2cc(Oc3ccc(N4CC[N+](C)(C)CC4)nc3)nc(-c3cc(Cl)cc(Cl)c3)c2)CC1 [Example 181]
2. CNC(=O)NCC1CCN(Cc2cc(Oc3cnc(N4CCN(CCC(=O)O)CC4)nc3)nc(-c3cc(Cl)cc(Cl)c3)c2)CC1 [Example 256]
3. CNC(=O)NCC1CCN(Cc2cc(Oc3cnc(N4CCN(CCCS(C)(=O)=O)CC4)nc3)nc(-c3cc(Cl)cc(Cl)c3)c2)CC1 [Example 257]
4. COCCN1CCN(c2ccc(Oc3cc(CN4CCC(CNC(C)=O)CC4)cc(-c4cc(Cl)cc(Cl)c4)n3)cn2)CC1 [Example 250]

1. 11.7
2. 30.4
3. 10.3
4. 25.9
